tested on: NCI-H226 lung; assay: NCI-60 one-dose screen, 48 h (100 = growth as untreated, 0 = no growth, -100 = all killed); settings: 10 µM unless noted
Compounds without any hit were thinned out: in the full panel of roughly 83,000, 20% have a hit.
# binarize growth: threshold 80% inclusive, high side T, low side F

# molecule, assigned.label
data = [
    ("COc1ccc2c(=O)c(OC)c(-c3cc(OC)c(OC)c(OC)c3)oc2c1", "T"),
    ("O=C(CN1CCN(c2ccc(Cl)cc2)CC1)N1CCN(c2nnc(-c3ccc(Cl)cc3)c(-c3ccc(Cl)cc3)n2)CC1", "F"),
    ("COc1cc(-c2nnc(-c3nc(-c4cc(OC)c(OC)c(OC)c4)n4ccccc34)o2)ccc1N", "T"),
    ("CC(=O)N1N=C(c2ccc(C(F)(F)F)cc2)CC1c1ccc2c(c1)OCO2 (stereo not given)", "T"),
    ("CCCCCCCSc1ncnc2[nH]ncc12", "F"),
]
